Molecular target: UniProtKB Q99788
Sequence (Q99788 whole entry): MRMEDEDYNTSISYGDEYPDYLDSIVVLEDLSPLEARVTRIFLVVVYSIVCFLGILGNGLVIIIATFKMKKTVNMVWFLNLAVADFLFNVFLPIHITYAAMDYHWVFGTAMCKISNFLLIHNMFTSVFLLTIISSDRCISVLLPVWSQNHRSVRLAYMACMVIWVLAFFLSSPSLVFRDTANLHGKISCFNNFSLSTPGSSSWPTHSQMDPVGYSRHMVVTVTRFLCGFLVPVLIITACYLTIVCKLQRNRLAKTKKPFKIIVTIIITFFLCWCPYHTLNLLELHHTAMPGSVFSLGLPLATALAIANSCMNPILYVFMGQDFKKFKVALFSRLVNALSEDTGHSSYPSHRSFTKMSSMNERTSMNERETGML
OBSERVABLE: pKd
Give bare numbers, as −log10 of the molar value.

(Q) Lab note: need pKd for CC[C@@H](O)/C=C/C=C\C[C@@H](O)/C=C/C=C/C=C\[C@@H](O)CCCC(=O)O on UniProtKB Q99788, anyone have it?
(A) 7.95
